Origin of measurements: paper PMC6001238

Test system: human T-lymphocyte (CEM) cells
Test: Cytostatic activity, CEM cell proliferation
Type: cell-based
Settings: mean ± SD of three experiments; highest concentration tested 250 µM; 3 days; read-out: Toxicity (IC50) CEM
Each record here notes measured pIC50.
Note on units: pIC50 is unitless, being -log10 of a concentration expressed in mol/L.

[
  {
    "COMPOUND": "CNC(CC(C)C)C(=O)NC1C(=O)NC(CC(N)=O)C(=O)NC2C(=O)NC3C(=O)NC(C(=O)NC(C(=O)NCCCNC(=O)c4ccc(C(C)(C)C)cc4)c4cc(O)cc(O)c4-c4cc3ccc4O)C(O)c3ccc(c(Cl)c3)Oc3cc2cc(c3OC2OC(CO)C(O)C(O)C2OC2CC(C)(N)C(O)C(C)O2)Oc2ccc(cc2Cl)C1O (stereo not drawn)",
    "TARGET": "human T-lymphocyte (CEM) cells",
    "pIC50": 3.89
  },
  {
    "COMPOUND": "CNC(CC(C)C)C(=O)NC1C(=O)NC(CC(N)=O)C(=O)NC2C(=O)NC3C(=O)NC(C(=O)NC(C(=O)NCC(=O)Nc4ccc5c(c4)C(=O)c4ccccc4-5)c4cc(O)cc(O)c4-c4cc3ccc4O)C(O)c3ccc(c(Cl)c3)Oc3cc2cc(c3OC2OC(CO)C(O)C(O)C2OC2CC(C)(N)C(O)C(C)O2)Oc2ccc(cc2Cl)C1O (stereo not drawn)",
    "TARGET": "human T-lymphocyte (CEM) cells",
    "pIC50": 4.42
  },
  {
    "COMPOUND": "CNC(CC(C)C)C(=O)NC1C(=O)NC(CC(N)=O)C(=O)NC2C(=O)NC3C(=O)NC(C(=O)NC(C(=O)NCC(=O)Nc4ccc(-c5ccc(C(C)=O)cc5)cc4)c4cc(O)cc(O)c4-c4cc3ccc4O)C(O)c3ccc(c(Cl)c3)Oc3cc2cc(c3OC2OC(CO)C(O)C(O)C2OC2CC(C)(N)C(O)C(C)O2)Oc2ccc(cc2Cl)C1O (stereo not drawn)",
    "TARGET": "human T-lymphocyte (CEM) cells",
    "pIC50": 5.25
  }
]

In the following, a different compound is considered.
// field: pIC50; key: CNC(CC(C)C)C(=O)NC1C(=O)NC(CC(N)=O)C(=O)NC2C(=O)NC3C(=O)NC(C(=O)NC(C(=O)NCC(=O)Nc4ccc(C#CC5CC5)cc4)c4cc(O)cc(O)c4-c4cc3ccc4O)C(O)c3ccc(c(Cl)c3)Oc3cc2cc(c3OC2OC(CO)C(O)C(O)C2OC2CC(C)(N)C(O)C(C)O2)Oc2ccc(cc2Cl)C1O (stereo not drawn) ; value = 3.84

====

Test system: E. faecalis VRE 53
Test: MIC, broth microdilution, vancomycin-resistant E. faecalis VRE 53 (VanA)
Type: cell-based, Enterococcus faecalis
Details: VRE 53; ratio of MIC of vancomycin and MIC of analogue
Procedure: The minimum inhibitory concentration (MIC) was determined using the broth microdilution method according to the antimicrobial susceptibility testing standards of the clinical and laboratory standards institute ([Clinical and Laboratory Standards Institute [CLSI], 2012]). Ultrapure water and non-inoculated broth were used as controls. In one case, a final concentration of 10 μM vancomycin was included with the vancomycin analog or control antibiotic.
Listed below: MIC-fold improvement vs. vancomycin values for each entry.
I only need the number, thanks.

// solved cases for MIC-fold improvement vs. vancomycin follow
[
  {
    "MOLECULE": "CNC(CC(C)C)C(=O)NC1C(=O)NC(CC(N)=O)C(=O)NC2C(=O)NC3C(=O)NC(C(=O)NC(C(=O)NCCCNC(=O)c4ccc(C(F)(F)F)cc4)c4cc(O)cc(O)c4-c4cc3ccc4O)C(O)c3ccc(c(Cl)c3)Oc3cc2cc(c3OC2OC(CO)C(O)C(O)C2OC2CC(C)(N)C(O)C(C)O2)Oc2ccc(cc2Cl)C1O (stereo not shown)",
    "MIC-fold improvement vs. vancomycin": 8
  },
  {
    "MOLECULE": "CNC(CC(C)C)C(=O)NC1C(=O)NC(CC(N)=O)C(=O)NC2C(=O)NC3C(=O)NC(C(=O)NC(C(=O)NCC(=O)Nc4ccc5c(c4)C(=O)c4ccccc4-5)c4cc(O)cc(O)c4-c4cc3ccc4O)C(O)c3ccc(c(Cl)c3)Oc3cc2cc(c3OC2OC(CO)C(O)C(O)C2OC2CC(C)(N)C(O)C(C)O2)Oc2ccc(cc2Cl)C1O (stereo not shown)",
    "MIC-fold improvement vs. vancomycin": 32
  },
  {
    "MOLECULE": "CNC(CC(C)C)C(=O)NC1C(=O)NC(CC(N)=O)C(=O)NC2C(=O)NC3C(=O)NC(C(=O)NC(C(=O)NCCCNC(=O)c4cc5ccccc5[nH]4)c4cc(O)cc(O)c4-c4cc3ccc4O)C(O)c3ccc(c(Cl)c3)Oc3cc2cc(c3OC2OC(CO)C(O)C(O)C2OC2CC(C)(N)C(O)C(C)O2)Oc2ccc(cc2Cl)C1O (stereo not shown)",
    "MIC-fold improvement vs. vancomycin": 16
  },
  {
    "MOLECULE": "CNC(CC(C)C)C(=O)NC1C(=O)NC(CC(N)=O)C(=O)NC2C(=O)NC3C(=O)NC(C(=O)NC(C(=O)NCCCNC(=O)c4ccc(C(C)(C)C)cc4)c4cc(O)cc(O)c4-c4cc3ccc4O)C(O)c3ccc(c(Cl)c3)Oc3cc2cc(c3OC2OC(CO)C(O)C(O)C2OC2CC(C)(N)C(O)C(C)O2)Oc2ccc(cc2Cl)C1O (stereo not shown)",
    "MIC-fold improvement vs. vancomycin": 16
  },
  {
    "MOLECULE": "CNC(CC(C)C)C(=O)NC1C(=O)NC(CC(N)=O)C(=O)NC2C(=O)NC3C(=O)NC(C(=O)NC(C(=O)NCCCNC(=O)c4cc5ccccc5s4)c4cc(O)cc(O)c4-c4cc3ccc4O)C(O)c3ccc(c(Cl)c3)Oc3cc2cc(c3OC2OC(CO)C(O)C(O)C2OC2CC(C)(N)C(O)C(C)O2)Oc2ccc(cc2Cl)C1O (stereo not shown)",
    "MIC-fold improvement vs. vancomycin": 16
  },
  {
    "MOLECULE": "CNC(CC(C)C)C(=O)NC1C(=O)NC(CC(N)=O)C(=O)NC2C(=O)NC3C(=O)NC(C(=O)NC(C(=O)NCC(=O)NC4c5ccccc5-c5ccccc54)c4cc(O)cc(O)c4-c4cc3ccc4O)C(O)c3ccc(c(Cl)c3)Oc3cc2cc(c3OC2OC(CO)C(O)C(O)C2OC2CC(C)(N)C(O)C(C)O2)Oc2ccc(cc2Cl)C1O (stereo not shown)",
    "MIC-fold improvement vs. vancomycin": 32
  }
]

# MIC-fold improvement vs. vancomycin of CCCC#Cc1ccc(NC(=O)CNC(=O)C2NC(=O)C3NC(=O)C(NC(=O)C4NC(=O)C(CC(N)=O)NC(=O)C(NC(=O)C(CC(C)C)NC)C(O)c5ccc(c(Cl)c5)Oc5cc4cc(c5OC4OC(CO)C(O)C(O)C4OC4CC(C)(N)C(O)C(C)O4)Oc4ccc(cc4Cl)C3O)c3ccc(O)c(c3)-c3c(O)cc(O)cc32)cc1 (stereo not shown) = 128

====

Let's look at some compounds and their measured MIC.
System: MRSA KS2
Experiment: MIC, broth microdilution, MRSA KS2
Assay type: cell-based, Staphylococcus aureus
Conditions: Staphylococcus aureus MRSA KS2; read-out: MIC
The figure you give is taken to be in µM; do not add the unit.

[
  {
    "COMPOUND": "CNC(CC(C)C)C(=O)NC1C(=O)NC(CC(N)=O)C(=O)NC2C(=O)NC3C(=O)NC(C(=O)NC(C(=O)NCC(=O)Nc4ccc(C=Cc5ccc(N)cc5)cc4)c4cc(O)cc(O)c4-c4cc3ccc4O)C(O)c3ccc(c(Cl)c3)Oc3cc2cc(c3OC2OC(CO)C(O)C(O)C2OC2CC(C)(N)C(O)C(C)O2)Oc2ccc(cc2Cl)C1O (stereo not drawn) [Vanc-58]",
    "MIC (µM)": 0.78
  }
]

For record CN[C@H](CC(C)C)C(=O)N[C@H]1C(=O)N[C@@H](CC(N)=O)C(=O)N[C@H]2C(=O)N[C@H]3C(=O)N[C@H](C(=O)N[C@H](C(=O)NCCNC(=O)/C=C/c4ccc(NS(=O)(=O)c5ccc(C(C)C)cc5)cc4)c4cc(O)cc(O)c4-c4cc3ccc4O)[C@H](O)c3ccc(c(Cl)c3)Oc3cc2cc(c3O[C@@H]2O[C@H](CO)[C@@H](O)[C@H](O)[C@H]2O[C@H]2C[C@](C)(N)[C@H](O)[C@H](C)O2)Oc2ccc(cc2Cl)[C@H]1O [Vanc-56] the listed MIC is 0.20

Measured MIC of CN[C@H](CC(C)C)C(=O)N[C@H]1C(=O)N[C@@H](CC(N)=O)C(=O)N[C@H]2C(=O)N[C@H]3C(=O)N[C@H](C(=O)N[C@H](C(=O)NCC(=O)Nc4ccc(C)cc4Cl)c4cc(O)cc(O)c4-c4cc3ccc4O)[C@H](O)c3ccc(c(Cl)c3)Oc3cc2cc(c3O[C@@H]2O[C@H](CO)[C@@H](O)[C@H](O)[C@H]2O[C@H]2C[C@](C)(N)[C@H](O)[C@H](C)O2)Oc2ccc(cc2Cl)[C@H]1O [Vanc-2] : 0.39
